Test system: P388;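 also: compound exposure lasted 48 hours before growth was measured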
assay-name: cells
Type: functional
experimental-setup: Mus musculus
Active and inactive are the calls of the source.
Could you please pick one outcome from this set? YES for active, NO for inactive

Record excerpt, results attached:
C[n+]1ccc(Nc2ccc(NC(=O)c3ccc(Nc4cc[n+](C)c5ccc([N+](=O)[O-])cc45)cc3[N+](=O)[O-])cc2)cc1 ... YES
O=C1CCCN1CCC/N=c1/cc2n(-c3ccc(Cl)cc3)c3ccccc3nc-2cc1Nc1ccc(Cl)cc1 ... NO
Nc1nc(Cl)nc2c1ncn2C1CC(O)C(CO)O1 (centres undefined) ... YES

API: the following record is the query input.
State the result this test recorded for CC(C)(C)c1ccc2c(c1)OP1(Oc3c(Cl)cc(Cl)c4cccnc34)(O2)Oc2ccc(C(C)(C)C)cc2O1 .
YES

* * *

Measured IC50, listed per entry.
study-target: Orexin receptor type 2 (Homo sapiens)
Sequence (O43614 whole entry): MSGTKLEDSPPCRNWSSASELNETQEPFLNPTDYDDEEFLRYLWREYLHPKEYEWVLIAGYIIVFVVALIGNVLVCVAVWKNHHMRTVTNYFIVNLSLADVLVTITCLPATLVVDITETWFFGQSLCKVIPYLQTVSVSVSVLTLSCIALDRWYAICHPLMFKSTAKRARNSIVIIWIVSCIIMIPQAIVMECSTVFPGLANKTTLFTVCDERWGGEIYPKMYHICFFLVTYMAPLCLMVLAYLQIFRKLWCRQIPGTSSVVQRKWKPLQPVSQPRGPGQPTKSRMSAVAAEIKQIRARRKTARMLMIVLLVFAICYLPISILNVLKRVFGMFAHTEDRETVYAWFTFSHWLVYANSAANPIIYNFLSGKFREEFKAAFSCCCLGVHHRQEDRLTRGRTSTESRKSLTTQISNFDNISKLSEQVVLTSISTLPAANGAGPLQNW
assay-name: Counterscreen assay for antagonists of the orexin 1 receptor (OX1R; HCRTR1): Fluorescence-based cell-based dose response assay for antagonists of the orexin 2 receptor (OX2R; HCRTR2), run by assay provider.
Type: functional
Active and inactive are the calls of the source.

O=c1c2ccccc2oc2cc(-c3ccc4[nH]ccc4c3)ccc12 ... 40 µM (inactive)

Give its IC50 value. Item: CC(NS(=O)(=O)c1ccc(OCC(=O)Nc2cccc([N+](=O)[O-])c2)cc1)c1ccccc1 (stereo unspecified)
> 88.8 µM (inactive)

Give its IC50 value. Item: CCN(C(=O)CO/N=C/c1ccc(OC)cc1OC)c1c(N)n(Cc2ccccc2)c(=O)[nH]c1=O
29 µM (inactive)

Give its IC50 value. Item: CCN(CC)c1ccc(/C=N/NC(=O)c2ccco2)c(O)c1
> 88.8 µM (inactive)

Give its IC50 value. Item: CCn1c2ccccc2c2nc3ccccc3nc21
35.2 µM (inactive)

Give its IC50 value. Item: Cc1noc(C)c1S(=O)(=O)Nc1ccc(O)c2c(=O)cc(-c3ccccc3Cl)oc12
16.8 µM (inactive)

* * *

Measured EC50, listed per entry.
System: BJ
assay-name: cells
Type: functional, cell-based
experimental-setup: Homo sapiens
The source made the active and inactive calls.

Worked examples follow.
CCN1/C(=C/c2ccc3cccc(C)c3[n+]2CC)Sc2ccccc21 ... 1.19 µM (active)
CSc1cc(-c2ccccc2)n(Cc2c(Cl)cccc2Cl)c(=O)c1C#N ... 64.7 µM (inconclusive)
COc1ccc(N2CCc3c(C)nc4c(OC)cccc4c32)cc1 ... 20 µM (inconclusive)
Cc1nc(N)nc(N)c1CCCc1ccc(Cl)c(Cl)c1 ... 1.36 µM (active)
Cn1nccc1C(=O)N/N=C/c1c(O)ccc2ccccc12 ... 7.69 µM (active)
COc1nc(Nc2nc(O)c3ccccc3n2)nc2ccc(C)cc12 ... 2.93 µM (active)

Continue with the next compound.
Give its EC50 value. Item: COc1ccc(O)c(/C=N/NC(=O)c2ccc(OCc3cccc(Br)c3)cc2)c1
110 µM (active)

* * *

The following are reported AC50 results, target or system Cytochrome P450 3A4 (Homo sapiens).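 Also: CYP3A4 tested as one member of a cytochrome P450 panel screen.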

COc1ccccc1CC(=O)O/N=C(\N)c1cccc([N+](=O)[O-])c1 ... 31.6 µM (inconclusive)

Give its AC50 value. Item: CC(C)(C)CC(C)(C)c1ccc(OCOCCOCCO)c(Cc2cc(C(C)(C)CC(C)(C)C)cc(Cc3cc(C(C)(C)CC(C)(C)C)ccc3OCOCCOCCO)c2OCOCCOCCO)c1
12.6 µM (inconclusive)

Give its AC50 value. Item: COc1ccccc1NC(=O)Nc1nnc(-c2ccco2)s1
17.8 µM (inconclusive)

Give its AC50 value. Item: Fc1ccc(-c2cn3cc(C(F)(F)F)cc(Cl)c3n2)cc1
14.1 µM (inconclusive)

Give its AC50 value. Item: CSc1ccc(CNc2ccccc2)cc1
35.5 µM (inconclusive)

* * *

study-target: 26S proteasome non-ATPase regulatory subunit 14 (Homo sapiens, UniProt O00487)
Sequence (O00487 whole entry): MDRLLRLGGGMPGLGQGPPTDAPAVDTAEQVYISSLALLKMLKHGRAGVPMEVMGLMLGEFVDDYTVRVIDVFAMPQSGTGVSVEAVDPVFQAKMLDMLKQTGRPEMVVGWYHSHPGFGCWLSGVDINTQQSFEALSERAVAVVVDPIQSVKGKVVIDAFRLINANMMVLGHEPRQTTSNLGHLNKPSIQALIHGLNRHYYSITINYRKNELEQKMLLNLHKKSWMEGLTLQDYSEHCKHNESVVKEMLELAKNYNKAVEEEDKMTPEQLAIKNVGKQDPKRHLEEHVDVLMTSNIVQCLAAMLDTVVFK
assay-name: inhibition of proteasome subunit RPN11 – biochemical, fluorescence polarization, uHTS hits, confirmation (AID 602368)
Format: functional
Active and inactive are the calls of the source.
property-label: IC50

Worked examples follow.
CCn1c(C)cc(/C=C2/SC(=S)N(CC(=O)O)C2=O)c1C ... 28.6 µM (active)
Cc1ccc(C2CC(c3cccs3)=NN2S(=O)(=O)c2ccc(C)cc2)cc1 (stereo unspecified) ... 43.4 µM (active)
C(=N\NC1=Nc2cccc3cccc1c23)/c1cccnc1 ... 11.9 µM (active)
CCOc1cc(/C=C2\C(=N)N3N=C(CC(=O)N4CCCCC4)SC3=NC2=O)ccc1O ... 37.6 µM (active)
COc1ccc(O)c(/C=N/NC(=O)c2ccc(OCc3cccc(Br)c3)cc2)c1 ... 37.9 µM (active)

Continue with the next compound.
Give its IC50 value. Item: Cc1c(C(=O)N/N=C/c2ccc(O)c(Br)c2)sc(N)c1C#N
49.8 µM (active)

* * *

study-target: UniProt O15305
Sequence (O15305 whole entry): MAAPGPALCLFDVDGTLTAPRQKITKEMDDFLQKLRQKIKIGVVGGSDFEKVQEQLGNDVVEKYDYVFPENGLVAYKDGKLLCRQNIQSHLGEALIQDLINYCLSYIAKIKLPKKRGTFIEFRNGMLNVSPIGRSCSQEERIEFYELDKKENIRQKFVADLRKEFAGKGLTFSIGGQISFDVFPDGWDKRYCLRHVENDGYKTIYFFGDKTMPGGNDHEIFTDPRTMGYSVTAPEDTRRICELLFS
assay-name: Counter screen SAR assay for PMM2 inhibitors via a fluorescence intensity assay. [Related pubchem assays (depositor defined):AID1545, AID1574]
The source made the active and inactive calls.
Could you please pick one outcome from this set? active, inactive

Record excerpt, results attached:
O=c1[nH]sc2ccccc12 ... inactive
Sc1nnc(C2COc3ccccc3O2)o1 (centres undefined) ... inactive
COc1ccc(-c2n[nH]c(N)n2)cc1 ... inactive

API: the following record is the query input.
State the result this test recorded for O=c1c2cc(F)ccc2sn1-c1ccccc1 .
active

* * *

Measured EC50, listed per entry.
assay-name: NIH-3T3 fibroblast cytotoxicity, dose response, cytotoxicity control, cell-based, fluorescence, Alamar Blue, secondary assay (AID 2327);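 also: NIH-3T3 mouse fibroblasts cultured with fluconazole at 8 µg/mL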
Assay type: functional
Activity calls are given as the source filed them.

Worked examples follow.
CCOC(=O)c1ccc(-c2ccc(C3Nc4ccccc4C(=O)N3O)o2)cc1 (configuration not stated) ... 17.6 µM (inconclusive)
O=c1c2cc(Br)ccc2nc(-c2cccc(C(F)(F)F)c2)n1O ... 15.5 µM (inconclusive)
CCN(CC)c1ccc(/C=N/Nc2nc3ccccc3[nH]2)cc1 ... 6.64 µM (active)

Give its EC50 value. Item: CCN(CC)c1ccc(/C=N/NC(=O)c2ccco2)c(O)c1
2.76 µM (inconclusive)

Give its EC50 value. Item: CC1(C)CC(=O)C=C(Nc2ccc([N+](=O)[O-])cc2)C1
> 160 µM (inactive)

Give its EC50 value. Item: Cc1ccc(-c2cc(-c3ccc(C)cc3)[n+](C)o2)cc1.[O-][Cl+3]([O-])([O-])[O-]
> 160 µM (inactive)

Give its EC50 value. Item: CO/N=C/C(=C\Nc1ccc(Cl)cc1Cl)c1ncc(C(F)(F)F)cc1Cl
> 160 µM (inconclusive)

* * *

Measured IC50, listed per entry.
Test system: H9c2;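 also: cell death induced by hydrogen peroxide oxidative stress; compound pretreatment for 60 min then peroxide exposure for 2 h; potency is for protecting the cells against peroxide damage rather than for killing them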;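 also: confirmatory concentration-response retest of ultra-high-throughput screening hits for modulation of myocardial damage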
assay-name: cells
Type: functional, cell-based
experimental-setup: Rattus norvegicus, H9c2, Myocardium
The source made the active and inactive calls.

Worked examples follow.
COc1ccc(C(CC(=O)N2CCN(c3ccccc3)CC2)c2c(OC)cc(OC)c3ccc(=O)oc23)cc1 (centres undefined) ... 11.4 µM (active)
CC(=O)c1ccc(-c2ccc(C(=O)Nc3nc(-c4ccccn4)cs3)o2)cc1 ... > 79 µM (inactive)
CCc1cc(C(=O)Nc2nc(-c3ccccn3)cs2)sc1C ... > 79 µM (inactive)

Continue with the next molecule.
Give its IC50 value. Item: COc1ccc(CCNC(=O)c2cc(C(=O)c3cc(C)ccc3O)cn(CCc3ccc(OC)cc3)c2=O)cc1
> 79 µM (inactive)

* * *

study-target: Aminopeptidase N (Plasmodium falciparum FcB1/Columbia, UniProt O96935)
Sequence (O96935 whole entry): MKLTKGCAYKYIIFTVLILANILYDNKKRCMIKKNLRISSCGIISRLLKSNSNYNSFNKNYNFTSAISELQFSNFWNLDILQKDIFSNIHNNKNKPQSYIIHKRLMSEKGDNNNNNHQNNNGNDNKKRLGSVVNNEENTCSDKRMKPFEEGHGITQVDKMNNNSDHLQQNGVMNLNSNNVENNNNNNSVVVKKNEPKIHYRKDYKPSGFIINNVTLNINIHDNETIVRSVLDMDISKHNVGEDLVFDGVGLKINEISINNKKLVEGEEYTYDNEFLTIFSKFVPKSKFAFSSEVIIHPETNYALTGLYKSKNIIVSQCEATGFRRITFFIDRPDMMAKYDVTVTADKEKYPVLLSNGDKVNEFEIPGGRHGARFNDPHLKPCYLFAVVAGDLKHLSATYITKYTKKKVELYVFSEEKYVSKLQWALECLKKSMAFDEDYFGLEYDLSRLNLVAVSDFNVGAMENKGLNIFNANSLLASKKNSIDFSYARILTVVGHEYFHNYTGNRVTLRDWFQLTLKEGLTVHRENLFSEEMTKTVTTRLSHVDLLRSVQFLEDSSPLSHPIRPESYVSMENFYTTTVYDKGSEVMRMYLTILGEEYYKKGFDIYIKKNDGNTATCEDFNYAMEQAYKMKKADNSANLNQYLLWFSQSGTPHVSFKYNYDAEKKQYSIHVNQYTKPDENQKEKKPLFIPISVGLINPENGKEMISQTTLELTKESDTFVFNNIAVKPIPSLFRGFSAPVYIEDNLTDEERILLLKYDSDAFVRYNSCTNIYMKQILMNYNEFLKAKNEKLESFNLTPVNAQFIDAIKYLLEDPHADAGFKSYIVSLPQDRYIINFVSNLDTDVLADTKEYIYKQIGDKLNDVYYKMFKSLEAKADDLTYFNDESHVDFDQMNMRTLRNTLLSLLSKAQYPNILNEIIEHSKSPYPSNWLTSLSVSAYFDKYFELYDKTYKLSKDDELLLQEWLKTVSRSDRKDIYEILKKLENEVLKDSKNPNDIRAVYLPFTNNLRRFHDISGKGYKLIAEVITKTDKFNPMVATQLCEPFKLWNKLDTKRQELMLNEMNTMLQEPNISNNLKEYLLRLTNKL
assay-name: malaria alanyl aminopeptidase activity blockers – biochemical, fluorogenic H-Leu-NHMec substrate, 1536-well (AID 1445)
Design: species or system Plasmodium falciparum 3D7, 3D7
Calls of active or inactive are those of the source.
property-label: IC50

Worked examples follow.
CCN(CC)CCCNc1oc(/C=C/c2ccccc2)nc1C#N ... 61 µM (active)
O=C(O)c1cc(-c2ccc(/C=N/N3C(=O)C4C5C=CC(C6CC56)C4C3=O)o2)ccc1Cl (stereo not given) ... 90.7 µM (active)
CCC(=O)N1NC(=C2C(=O)N(C)C(=O)N(C)C2=O)CC1c1ccccc1 (stereo not given) ... 41.9 µM (active)
CCn1c(C)cc(/C=C2/SC(=S)N(CC(=O)O)C2=O)c1C ... 75.5 µM (active)

Continue with the next molecule.
Give its IC50 value. Item: N#Cc1nc(/C=C/c2ccccc2)oc1NCCCN1CCOCC1
39.2 µM (active)
